B1: library; a variant is named by its letters at N, in order (parent)
chain: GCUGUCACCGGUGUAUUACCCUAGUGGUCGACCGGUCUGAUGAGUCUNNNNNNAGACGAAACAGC

variants of: B1; test: FACS-Seq fitted mean relative fluorescence mCherry/BFP with ligand (log10 relative fluorescence); ligand: hypoxanthine (xanthine aptamer); ligand concentration (+) FACS-Seq: 5 mM; higher = higher reporter protein expression; details: HEK293T, ligand present: yes
Assignment: determine reported FACS-Seq fitted mean (log10) for the given variants.
Output spec: single numeric token, no unit.

Asked: For the variant shown here, `GCGCAC` , give the reported FACS-Seq fitted mean (log10).
Given back: 0.0185

Asked: Please do the same for `CUAGAA` as well.
Given back: 0.359

Asked: Please do the same for `GUGACG` as well.
Given back: 0.523

Asked: Please do the same for `AUACAC` as well.
Given back: 0.456
